Experiment: protein stability index of a GFP-peptide fusion (yeast GPS) (PSI 1-4); higher = more stable; sorted into four equal gates, so the index is relative within each strain
Settings: san1∆
Provide the recorded protein stability index for the entries that follow.
// print number alone

Suppose we examine the sequence EPELRVLSTEEILNIFK [RPO21] ; what protein stability index value has been reported?
3.51

Record request: protein stability index value, item AIMKPYYLWTGKQVFSL [RPO31]
2.83

Consider the sequence shown here: LEYNVALNDVYLDADVA [YML031W/NDC1] What is its recorded protein stability index?
3.05

For KRLSAALSKFLTHPKYL [YML103C/NUP188] , what is its reported protein stability index?
2.84

Recorded protein stability index of TTFTHCEIHPSMILGVA [RPB2] , please.
1.3

Need protein stability index of LGYKDTSVIQDLSEKIL [BRR2] , thanks.
2.81

Query: protein stability index; subject: SQSKMMSSQISSLIPHC [MTR3]
2.21

Which protein stability index is listed for EGQIIQRSNISTAIKSL [CDC53] ?
2.46

Param item = DVQKSSDSSSEDEVKVE [YLR335W/NUP2] ; retrieve measured protein stability index.
2.69

Field request: protein stability index | item: DLKLPPMDAYLKLNHII [SNU114]
2.52

What protein stability index value was documented for this sequence, ILPQQSKLKLKNLLRKN [ECM29] ?
2.01

Which protein stability index value belongs to KKITLQLLDTSNQRFKD [SIN4] ?
2.91

Value lookup for protein stability index; key = PDIADIPRTFRTPVPST [SNF5]
2.04

Consider the sequence NLPPHYALFLKALRRKI [SSN2] and give its measured protein stability index.
2.8

What does the record list as protein stability index for EEIVSNSSRFSDPMLQR [YCS4] ?
3.28

Look up protein stability index for this sequence: KRCVGVILGDANSSTIR [RPN8]
2.82

Tell me the measured protein stability index of VDFACCTNLTNRTLYEL [GRR1] , please.
2.26

So what's the measured protein stability index for this one? KELVECHLYSQRMHAIH [NNF1]
2.05

What protein stability index value was documented for this sequence, KERNSLKKLKAMNDACY [BRR2] ?
2.98

Data request, read-out protein stability index, for LQSISSLTISLYASDYA [RPN7]
1.83

# get_value(readout='protein stability index', item= TPIIFIGTGEHIHDLEK [SRP54] )
2.76

Entry SDLLVAPPLENENSNCL [YML103C/NUP188] has what protein stability index?
3.25

I am curious: what protein stability index value has been reported for VFVGTIFAGAFVFQTVF [QCR9] ?
1.23

Fill in: protein stability index of EYYVMMDFANLWVFQAF [SRB8] is ___
2.63

So what does the record say about protein stability index for SFVFGQAAAKPSLEKSS [YLR335W/NUP2] ?
2.21

Item QIIRRVKEMEPKQSDEY [SIR3] has what recorded protein stability index?
3.37

What value of measured protein stability index is listed for EELRGQQTEHETEIKDL [SMC4] ?
3.48

Query (sequence): QYESQAPDGSASISLPN [SWP82] ; field requested: protein stability index
2.92

Entry HILPEVPPVENFPVRQW [TAF14] : reported protein stability index = ?
2.95

Entry under review: CTLTADGAYALSASWDK [ASC1] . Reported protein stability index?
3.19

Need protein stability index of QRMHAIHEIDERLAKVN [NNF1] , thanks.
2.42

Fill blank: measured protein stability index of the sequence PGTVLILLAGRFRGKRV [RPL6A] is ____.
1.66

Reported protein stability index, sequence VMEIGKDAEYLRNYLTP [PUP1] : ____
2.77

I'd like to know its protein stability index. The sequence in question is ENGLQLSDNAKTLHSQM [RPC34]
3.27

Which protein stability index is listed for DFDLLNKTLTFETETEV [FAS1] ?
3.44

I would be grateful if you could share the reported protein stability index for LLSLISTTAALQSISSL [RPN7] .
1.77

Looking for the measured protein stability index of ENMWPFSYQEVEFKLPK [CDC53] , can you help?
1.34

Form field: reported protein stability index of SEYKVAFPHLYNSRPRS [PRP8]
2.85

Would you mind telling me what protein stability index value was observed for RIYTNSFIDIMEVLGIE [RPO21] ?
3.02

Suppose we examine the sequence RGLTPQEFFFHAMGGRE [RPO21] ; what protein stability index value has been reported?
2.2

Entry LPKAWISLAVEGEPVNS [COR1] : reported protein stability index = ?
2.84

Reported protein stability index, sequence TRMQRGHRADVGGQFSK [REC8] : ____
3.27

# query: protein stability index of entry FCPGEIVGKSNVLVTMP [YMR129W/POM152]
1.82

Please report the recorded protein stability index for AKLWFYIYLSHETLARS [RPN3] .
1.68

Which protein stability index is reported for this sequence? VFLFDIEKVDRENMICK [RRI2]
2.88

Given the entry LGLYVGVDDQILATNSL [YJL039C/NUP192] , report its measured protein stability index.
2.3

// returns reported protein stability index for input LNNNNNNNNTTTTTTTT [SWI1]
3.33

# lookup: protein stability index of KFANQLHDEYLVSMRYP [RPN3]
2.43

---

Experiment: protein stability index of a GFP-peptide fusion (yeast GPS) (PSI 1-4); higher = more stable; sorted into four equal gates, so the index is relative within each strain
Conditions: ubr1∆
Provide the recorded protein stability index for the entries that follow.
Output: the number by itself.

Reported protein stability index for VDPRIINSENDYSRKQL [NUT1] : what is it?
3.06

Request the reported protein stability index associated with LLERYIGNLITRQFEGR [PRP8]
1.99

Look up protein stability index: WLWPLCRGELKADIGKP [CDC53]
2.43

protein stability index lookup needed for DSYLDADKELSFEINVK [BRR2] , thanks.
2.88

Please look up its protein stability index: ADTGRDDTKETVYISSI [RPN11]
3.16

Could you tell me which protein stability index is on file for VRMRLAQLTHSLRRIRD [MED8] ?
1.91

Consider the sequence shown here: PEHLRKIINTHSDMASK [PRP8] What is its recorded protein stability index?
2.37

Which measured protein stability index value corresponds to KANEKKESDESKSAFSF [YJL041W/NSP1] ?
3.12

Query: protein stability index; subject: SPEEQRSLLQEAIETCK [GAL11]
2.88

What does the record list as protein stability index for FKNMGNTCYLNATLQAL [UBP6] ?
1.83

Consider the sequence shown here: HKCDELITLFNKGELET [RPO31] What is its recorded protein stability index?
2.92

Quick check: protein stability index of QIIRRVKEMEPKQSDEY [SIR3] ?
2.89

Quick one: protein stability index for KELNEKIQKLEEDDEGE [RPN7] ?
1.06

// query protein stability index value for entry ILLQHKEKLTVQDCRYS [POP1]
2.42

Query (sequence): SFSLTVSKEQFLKDADV [YJL039C/NUP192] ; field requested: protein stability index
1.64

I have this sequence here, LSDRITGNFIIPSGNVW [PRP8] , and I need its recorded protein stability index.
2.9

---

Test: protein stability index of a GFP-peptide fusion (yeast GPS) (PSI 1-4); higher = more stable; sorted into four equal gates, so the index is relative within each strain
Conditions: doa10∆
Please provide measured protein stability index for the entries that follow.
Answer with a bare number; do not write a unit.

For the sequence KNSTSSMTAVPKPLKFL [RPN1] , what protein stability index is on record?
2.03

Reported protein stability index for KDILVKTGITKKDEDEE [PRE9] : what is it?
3.37

Form field: reported protein stability index of LFLNNFVSRIPIMFQDF [IRR1]
1.97

Data request, read-out protein stability index, for VNIVEKDGAKFIEVRNF [RPL9A]
3.38

Entry TTFEYIIKERALLSKVK [SNF2] : reported protein stability index = ?
1.58

# lookup: protein stability index of VDLLQFPWLNAIKYRPT [POP3]
2.33

I'd like to know its protein stability index. The sequence in question is LSRNGKPVMEVTSSFFY [FAS1]
3.04

Value lookup for protein stability index; key = AFNDSCVNLSLFDARFE [SRB8]
3.11

---

Test: protein stability index of a GFP-peptide fusion (yeast GPS) (PSI 1-4); higher = more stable; sorted into four equal gates, so the index is relative within each strain
Settings: ubr1∆
Please provide measured protein stability index for the entries that follow.
Please give the numeric answer without any surrounding text.

Would you mind telling me what protein stability index value was observed for TNWIIYPLWVMAKQLIR [CSN12] ?
1.24

Fill blank: measured protein stability index of the sequence TNNVLRKLGLLGDKEDE [MTW1] is ____.
2.58

Give its protein stability index value. Item: LHVVITLLREVVFTRLV [CSN12]
1.37

Quick check: protein stability index of DSIIDNIVKLCFVHRYK [IRR1] ?
2.08

Requested read-out: protein stability index. Entry: IRKSETSGRYASYRICM [RPB5]
2.97

Recorded protein stability index of YFYDLDVLKDGENNINF [BRN1] , please.
3.29

May I ask what protein stability index has been recorded for KELFGEDEDEDLFGDSN [SSN2] ?
3.67

Name the reported protein stability index value associated with the sequence RNFDTHENYIQDDDFPL [MCD1]
2.91

Look up protein stability index: KSKEDMKQLKFFKPLDY [SNU114]
3.29

Query: protein stability index; subject: REAIRPGHEMEDFLDKS [AAR2]
3.22

# protein stability index lookup, item LKQHNQNNLPPNFFLTL [BRR2]
2.94

Which measured protein stability index value corresponds to LEIALFKYRKARLEPGT [RPO31] ?
2.85

I am curious: what protein stability index value has been reported for NYDIITASSLAHDYNND [YML103C/NUP188] ?
2.33

Which protein stability index reading was recorded for the sequence NGQYAAFVKDMQVYLVP [RPC37] ?
1.83

What measured protein stability index goes with MNTVPFTSAPIEVTIGI [AAR2] ?
1.64

Requested read-out: protein stability index. Entry: SFRIKQKMAKAKKQNRP [RPL39]
2.93

What value of measured protein stability index is listed for SPIPFPPLTYKNDTKIL [PRP8] ?
2.24

Every entry's value here was drawn from the supplement of paper PMC9732359.
